Values compiled from the NIST ThermoML archive (doi:10.1016/j.jct.2019.03.014).

assay_remarks: xn = mol fraction of the nth substance listed
condition_context: 303.2 K, Ring tensiometer, x2 = 0.7
surface tension liquid-gas values for the compounds below.
Give just the number in mN/m; leave the unit off.

As a guide, the following entries are already answered.
compound	test_result
OCC(O)CO [glycerol] + CC(C)O	23.4
OCC(O)CO [glycerol] + CCCO	25.5
OCC(O)CO [glycerol] + CCO	25.4

# ---- query compound ----
Sample OCC(O)CO [glycerol] + CCCCO — what was its surface tension liquid-gas?
25.1

* * *

surface tension liquid-gas values for the molecules below.
assay_remarks: xn = mol fraction of the nth substance listed
condition_context: 333.2 K, Ring tensiometer, x2 = 0.6
Give just the number in mN/m; leave the unit off.

As a guide, the following entries are already answered.
molecule	measure_name	unit_info	test_result
OCC(O)CO [glycerol] + CCO	surface tension liquid-gas	mN/m	25.9
OCC(O)CO [glycerol] + CCCO	surface tension liquid-gas	mN/m	25
OCC(O)CO [glycerol] + CCCCO	surface tension liquid-gas	mN/m	23.7

# ---- query molecule ----
Sample OCC(O)CO [glycerol] + CC(C)O — what was its surface tension liquid-gas?
22.6

* * *

assay_remarks: xn = mol fraction of the nth substance listed
condition_context: 333.2 K, Ring tensiometer, x2 = 0.9
measure_name: surface tension liquid-gas (mN/m)
Give just the number in mN/m; leave the unit off.

molecule	surface tension liquid-gas / mN/m
OCC(O)CO [glycerol] + CCO	21.2
OCC(O)CO [glycerol] + CC(C)O	19.1
OCC(O)CO [glycerol] + CCCCO	21.6

# ---- query molecule ----
Sample OCC(O)CO [glycerol] + CCCO — what was its surface tension liquid-gas?
21.6
